# target or test system: Trypsin (Sus scrofa, UniProt P00761)
# Sequence (P00761 whole entry): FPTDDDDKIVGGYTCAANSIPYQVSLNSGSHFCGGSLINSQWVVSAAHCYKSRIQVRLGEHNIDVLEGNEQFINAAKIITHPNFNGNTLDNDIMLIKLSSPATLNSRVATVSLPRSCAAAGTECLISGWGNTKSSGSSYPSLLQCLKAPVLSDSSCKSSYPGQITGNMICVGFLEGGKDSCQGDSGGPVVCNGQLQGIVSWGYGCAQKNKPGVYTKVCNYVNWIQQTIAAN
# procedure text: trypsin protease activity blockade – biochemical, quenched peptide fluorescence, cherry-pick, selectivity assay for Rce1 protease inhibitor project, dose response (AID 488789)
Calls of active or inactive are those of the source.

{"columns": ["compound", "AC50"],
 "data": [
  ["CCC(C)NC(=O)CSC1=Nc2ccccc2C2=NC(CC(=O)NCc3ccc(F)cc3)C(=O)N12 (configuration not stated)", "16.1 µM (active)"],
  ["COc1cccc(C2CC(c3cccs3)=NN2C(=O)CSc2nc3c(cnn3-c3ccc(F)cc3)c(=O)[nH]2)c1OC (configuration not stated)", "3.95 µM (active)"],
  ["COc1ccccc1N1CCN(C(=O)c2coc(=O)c(Br)c2)CC1", "9.18 µM (active)"],
  ["COC(=O)C1=CN(CC2CCCO2)C=C(C(=O)OC)C1c1cccc(O)c1 (configuration not stated)", "9.88 µM (active)"],
  ["COc1ccccc1-c1cc(C(F)(F)F)nc(S(=O)(=O)CCCC(=O)NCc2ccc(F)cc2)n1", "2.3 µM (active)"],
  ["CCc1nnc(NC(=O)c2ccc(NS(=O)(=O)c3ccccc3)cc2)s1", "45.1 µM (active)"],
  ["CCc1cc(=O)oc2c3c(cc(OCC(=O)NCCCCCC(=O)O)c12)OC(C)(C)CC3", "4.32 µM (active)"]
]}

---

# reported IC50; entries follow
# target or test system: UniProt:Q9H0H5
# Sequence (Q9H0H5 whole entry): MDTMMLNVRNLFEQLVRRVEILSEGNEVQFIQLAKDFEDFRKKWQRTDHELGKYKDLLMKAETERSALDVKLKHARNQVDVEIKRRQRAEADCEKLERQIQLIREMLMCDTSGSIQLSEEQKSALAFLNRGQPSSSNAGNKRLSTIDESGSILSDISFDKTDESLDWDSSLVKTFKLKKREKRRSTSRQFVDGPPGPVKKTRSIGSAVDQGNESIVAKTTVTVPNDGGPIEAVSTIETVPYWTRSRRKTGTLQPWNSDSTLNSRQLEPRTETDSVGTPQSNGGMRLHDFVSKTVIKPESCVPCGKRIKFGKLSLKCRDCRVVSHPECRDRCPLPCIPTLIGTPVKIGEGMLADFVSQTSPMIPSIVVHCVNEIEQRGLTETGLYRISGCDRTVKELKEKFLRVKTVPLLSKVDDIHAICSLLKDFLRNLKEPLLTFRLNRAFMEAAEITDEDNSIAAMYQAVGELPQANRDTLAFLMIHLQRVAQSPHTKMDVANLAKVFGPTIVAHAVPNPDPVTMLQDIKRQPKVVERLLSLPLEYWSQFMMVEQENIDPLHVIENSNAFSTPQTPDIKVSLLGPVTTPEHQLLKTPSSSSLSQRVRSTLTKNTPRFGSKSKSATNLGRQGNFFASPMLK
# procedure text: blockers of MgcRacGAP-driven Rac1 GTP hydrolysis – biochemical, ADP Hunter fluorescence, primary and confirmatory, confirmation (AID 624330)
# Format: functional
The source made the active and inactive calls.
recorded endpoint: IC50

{"columns": ["compound", "measured"],
 "data": [
  ["CC1(C)OC(C)(C)C(/C=N/c2ccc(O)cc2)=C1O", "17 µM (active)"],
  ["CC(NCc1ccc(S(N)(=O)=O)cc1)C(=O)N1c2ccccc2CC1C (stereo unspecified)", "135 µM (active)"],
  ["O=c1oc(-c2ccc(O)c(O)c2)cc2cc(O)cc(O)c12", "20.4 µM (active)"],
  ["COc1cc(/C=C2/SC(Nc3ccc(O)cc3)=NC2=O)ccc1O", "20 µM (active)"],
  ["Cc1ccc(NC(=O)CNCC(c2ccccc2)N(C)C)cc1F (stereo unspecified)", "70.8 µM (active)"],
  ["Cc1ccc(N2C(S)=C(C#N)C(=O)NC2c2cccs2)cc1 (stereo unspecified)", "128 µM (active)"],
  ["Oc1ccc(-c2nccs2)cc1", "28.1 µM (active)"],
  ["CCOC(=O)/C(C#N)=C1\\C(=O)N(Cc2ccccc2)c2ccccc21", "42.4 µM (active)"],
  ["O=C(CNCc1ccc(Cl)cc1)Nc1ccc2c(c1)OCCO2", "156 µM (active)"],
  ["CCN(CC)c1ccc(C(=C2C=CC(=[N+](CC)CC)C=C2)c2ccc(N(CC)CC)cc2)cc1", "20.6 µM (active)"],
  ["COc1ccc(NC2CCCN(C(=O)c3csc(C(C)C)n3)C2)cc1 (stereo unspecified)", "139 µM (active)"]
]}
